Source of measurements: patent US9023852B2

- System: M17—3TAU(P301L) cells
- protocolDetails: Neuroblastoma tauopathy model: inhibition of TAU-induced cytotoxicity (LDH)
- Format: cell-based
- measurementContext: Homo sapiens, 168 h; inhibition of TAU-induced toxicity (LDH), 7 days differentiation with retinoic acid
pEC50: −log10 of the molar value.
Please enter criterion met where pEC50 is greater than or equal to 7, and criterion not met where it is lower.

smilesNotation: COc1cccc(CCN2CCN(c3nc(-c4cnccn4)ns3)CC2)c1
assignedClass: criterion not met

smilesNotation: Cc1ncc(-c2nsc(N3CCN(CCc4ccc(F)cc4)CC3)n2)cn1
assignedClass: criterion met

smilesNotation: COc1cccc(CCN2CCN(c3nc(-c4ccccc4Cl)ns3)CC2)c1
assignedClass: criterion met

smilesNotation: Fc1ccc(CCN2CCN(c3nc(-c4cncc(Cl)c4)ns3)CC2)cc1
assignedClass: criterion met

smilesNotation: COc1cc(CCN2CCN(c3nc(-c4ccc(C)nc4)ns3)CC2)ccn1
assignedClass: criterion met

smilesNotation: Fc1ccc(CCN2CCN(c3nc(-c4cccc(Cl)c4)ns3)CC2)cc1
assignedClass: criterion met

smilesNotation: COc1ccc(CCN2CCN(c3nc(-c4cccc(F)c4)ns3)CC2)cn1
assignedClass: criterion met

smilesNotation: Cc1ccccc1CN1CCN(c2nc(-c3ccc(Cl)cc3)ns2)CC1
assignedClass: criterion not met

smilesNotation: Cc1ccccc1CN1CCN(c2nc(-c3cccc(Cl)c3)ns2)CC1
assignedClass: criterion met

smilesNotation: COc1cccc(CCN2CCN(c3nc(-c4ccccc4OC)ns3)CC2)c1
assignedClass: criterion met

smilesNotation: COc1ccc(CCN2CCN(c3nc(-c4ccc(F)c(F)c4)ns3)CC2)cn1
assignedClass: criterion met

smilesNotation: N#Cc1ccc(-c2nsc(N3CCN(CCc4ccc(Cl)cc4)CC3)n2)cc1
assignedClass: criterion met

smilesNotation: COc1cc(CCN2CCN(c3nc(-c4ccc(F)c(F)c4)ns3)CC2)ccn1
assignedClass: criterion met

smilesNotation: FC(F)(F)c1ccc(CCN2CCN(c3nc(-c4ccc(Cl)cc4)ns3)CC2)cc1
assignedClass: criterion not met

smilesNotation: Fc1ccc(CCN2CCN(c3nc(-c4cccc(Cl)c4)ns3)CC2)cc1F
assignedClass: criterion met

smilesNotation: N#Cc1cccc(-c2nsc(N3CCN(CCc4ccc(Cl)cc4)CC3)n2)c1
assignedClass: criterion met

###

- protocolDetails: Microsomal stability assay (intrinsic clearance), rat liver microsomes
- Assay type: in vitro ADME
- measurementContext: rat in vitro microsomes, second value of Hum/Rat pair
# microsomal CLint values compiled below
property: microsomal CLint (µL/min/mg)

compound: Fc1cccc(-c2nsc(N3CCN(CCc4ccc(Cl)cc4)CC3)n2)c1
testResult: 23

compound: Cc1ccc(-c2nsc(N3CCN(Cc4ccc5c(c4)OCO5)CC3)n2)cc1
testResult: 48

compound: O=S(=O)(c1ccc(OC(F)(F)F)cc1)N1CCN(c2nc(Cc3ccc(F)cc3)ns2)CC1 [reference compound]
testResult: 103

compound: Fc1ccc(Cc2nsc(N3CCN(Cc4ccc5c(c4)OCO5)CC3)n2)cc1 [reference compound]
testResult: 482

###

- System: M17—3TAU(P301L) cells
- protocolDetails: Neuroblastoma tauopathy model: inhibition of TAU-induced cytotoxicity (LDH)
- Assay type: cell-based
- measurementContext: Homo sapiens, 168 h; inhibition of TAU-induced toxicity (LDH), 7 days differentiation with retinoic acid
pEC50: −log10 of the molar value.
pEC50 values, listed per item

molecule: Clc1ccc(CCN2CCN(c3nc(-c4cccc(Cl)c4)ns3)CC2)cc1
measuredTarget: M17—3TAU(P301L) cells
pEC50: 7.88

molecule: N#Cc1ccc(-c2nsc(N3CCN(CCc4cccc(C(F)(F)F)c4)CC3)n2)cc1
measuredTarget: M17—3TAU(P301L) cells
pEC50: 6.85

molecule: Fc1cccc(CCN2CCN(c3nc(-c4ccc(Cl)cc4)ns3)CC2)c1
measuredTarget: M17—3TAU(P301L) cells
pEC50: 8.02

molecule: Clc1cccc(-c2nsc(N3CCN(CCC4CCOCC4)CC3)n2)c1
measuredTarget: M17—3TAU(P301L) cells
pEC50: 8.96

molecule: Clc1ccc(-c2nsc(N3CCN(CCc4ccccc4Cl)CC3)n2)cc1
measuredTarget: M17—3TAU(P301L) cells
pEC50: 8.89

molecule: COc1cccc(CCN2CCN(c3nc(-c4cccs4)ns3)CC2)c1
measuredTarget: M17—3TAU(P301L) cells
pEC50: 6.80

molecule: Clc1cc(-c2nsc(N3CCN(CCc4ccccc4)CC3)n2)ccn1
measuredTarget: M17—3TAU(P301L) cells
pEC50: 9.15

molecule: Clc1ccc(CCN2CCN(c3nc(-c4ccnc(Cl)c4)ns3)CC2)cc1
measuredTarget: M17—3TAU(P301L) cells
pEC50: 7.98

molecule: Fc1ccc(CCN2CCN(c3nc(-c4cncc(Cl)c4)ns3)CC2)cc1F
measuredTarget: M17—3TAU(P301L) cells
pEC50: 9.40

molecule: Fc1ccc(CCN2CCN(c3nc(-c4cccc(F)c4)ns3)CC2)cc1
measuredTarget: M17—3TAU(P301L) cells
pEC50: 8.05

molecule: Cc1ccc(-c2nsc(N3CCN(CCc4ccc(F)cc4)CC3)n2)cn1
measuredTarget: M17—3TAU(P301L) cells
pEC50: 7.55

molecule: Fc1cccc(-c2nsc(N3CCN(CCc4cccc(C(F)(F)F)c4)CC3)n2)c1
measuredTarget: M17—3TAU(P301L) cells
pEC50: 6.70

molecule: COc1ccc(CCN2CCN(c3nc(-c4cccc(C#N)c4)ns3)CC2)cn1
measuredTarget: M17—3TAU(P301L) cells
pEC50: 8.64

molecule: Clc1cncc(-c2nsc(N3CCN(CCN4CCCCC4)CC3)n2)c1
measuredTarget: M17—3TAU(P301L) cells
pEC50: 7.89

molecule: N#Cc1ccc(-c2nsc(N3CCN(CCc4ccc(F)c(F)c4)CC3)n2)cc1
measuredTarget: M17—3TAU(P301L) cells
pEC50: 7.74

molecule: Clc1ccc(-c2nsc(N3CCN(CCC4CCCCC4)CC3)n2)cc1
measuredTarget: M17—3TAU(P301L) cells
pEC50: 7.40

molecule: COc1ccc(CCN2CCN(c3nc(-c4ccc(C(F)(F)F)nc4)ns3)CC2)cc1
measuredTarget: M17—3TAU(P301L) cells
pEC50: 9.52

molecule: COc1cccc(C(O)CN2CCN(c3nc(-c4ccc(Cl)cc4)ns3)CC2)c1 (stereo not drawn)
measuredTarget: M17—3TAU(P301L) cells
pEC50: 7.35

###

Listed next: entries and their corresponding EC50.
- Tested on: M17—3TAU(P301L) cells
- protocolDetails: Neuroblastoma tauopathy model: inhibition of TAU-induced cytotoxicity (LDH)
- Format: cell-based
- measurementContext: Homo sapiens, 168 h; inhibition of TAU-induced toxicity (LDH), 7 days differentiation with retinoic acid

smilesNotation: Clc1ccc(CCN2CCN(c3nc(-c4ccc(Cl)cc4)ns3)CC2)cc1
EC50 [nM]: 7.7

smilesNotation: COc1cccc(CCN2CCN(c3nc(-c4cccc(Cl)c4)ns3)CC2)c1
EC50 [nM]: 0.6

smilesNotation: COc1cc(CCN2CCN(c3nc(-c4ccnc(Cl)c4)ns3)CC2)ccn1
EC50 [nM]: 1.5

smilesNotation: COc1ccc(CCN2CCN(c3nc(-c4cccc(F)c4)ns3)CC2)cc1
EC50 [nM]: 0.7

smilesNotation: Fc1ccc(CCN2CCN(c3nc(-c4ccc(Cl)cn4)ns3)CC2)cc1F
EC50 [nM]: 47.2

smilesNotation: COc1cccc(CCCN2CCN(c3nc(-c4ccc(Cl)cc4)ns3)CC2)c1
EC50 [nM]: 368

smilesNotation: Cc1ccc(-c2nsc(N3CCN(CCc4ccc(Cl)cc4)CC3)n2)cn1
EC50 [nM]: 80.6

smilesNotation: COc1cccc(CCN2CCN(c3nc(-c4ccc(OC(F)(F)F)cc4)ns3)CC2)c1
EC50 [nM]: 119

smilesNotation: Fc1ccc(CCN2CCN(c3nc(-c4cc(Cl)ccn4)ns3)CC2)cc1
EC50 [nM]: 42.5

###

- System: M17—3TAU(P301L) cells
- protocolDetails: Neuroblastoma tauopathy model: inhibition of TAU-induced cytotoxicity (LDH)
- Type: cell-based
- measurementContext: Homo sapiens, 168 h; inhibition of TAU-induced toxicity (LDH), 7 days differentiation with retinoic acid
Entries and their measured EC50 follow.

compound: Cc1ccc(CCN2CCN(c3nc(-c4ccc(Cl)cc4)ns3)CC2)cc1 [Example 26]
EC50 / nM: 4.9
--
compound: Cc1cccc(CCN2CCN(c3nc(-c4ccc(Cl)cc4)ns3)CC2)c1 [Example 23]
EC50 / nM: 1.9
--
compound: COc1cccc(CCN2CCN(c3nc(-c4ccc(C)cc4)ns3)CC2)c1 [Example 16]
EC50 / nM: 65.3
--
compound: COc1ccc(CCN2CCN(c3nc(-c4cccc(Cl)c4)ns3)CC2)cc1 [Example 41]
EC50 / nM: 0.7
--
compound: COc1ccc(CCN2CCN(c3nc(-c4ccc(F)cc4)ns3)CC2)cc1 [Example 47]
EC50 / nM: 0.4
--
compound: COc1ccc(CCN2CCN(c3nc(-c4ccc(C#N)cc4)ns3)CC2)cc1 [Example 78]
EC50 / nM: 2.1
--
compound: N#Cc1cccc(-c2nsc(N3CCN(CCc4ccc(F)c(F)c4)CC3)n2)c1 [Example 137]
EC50 / nM: 6.2
--
compound: Clc1ccc(-c2nsc(N3CCN(CCc4cccc(Cl)c4)CC3)n2)cc1 [Example 22]
EC50 / nM: 4.2
--
compound: Fc1cccc(-c2nsc(N3CCN(CCc4ccc(Cl)cc4)CC3)n2)c1 [Example 88]
EC50 / nM: 121
--
compound: COc1ccc(CCN2CCN(c3nc(-c4ccc(OC)cc4)ns3)CC2)cc1 [Example 40]
EC50 / nM: 14.1
--
compound: COc1ccc(CCN2CCN(c3nc(-c4ccc(C#N)cc4)ns3)CC2)cn1 [Example 114]
EC50 / nM: 7.9
--
compound: COc1ccc(C(=O)CN2CCN(c3nc(-c4ccc(Cl)cc4)ns3)CC2)cc1 [Example 53]
EC50 / nM: 12.6
--
compound: COc1ccc(CCN2CCN(c3nc(-c4ccc(Cl)cc4)ns3)CC2)cc1F [Example 80]
EC50 / nM: 2.7
--
compound: COc1cccc(CCN2CCN(c3nc(-c4ccc(Cl)cc4)ns3)CC2)c1 [Example 14]
EC50 / nM: 4.8
--
compound: Fc1cccc(-c2nsc(N3CCN(CCc4ccccc4)CC3)n2)c1 [Example 83]
EC50 / nM: 9.5
--
compound: FC(F)(F)c1cccc(CCN2CCN(c3nc(-c4cc(Cl)ccn4)ns3)CC2)c1 [Example 159]
EC50 / nM: 119
--
compound: COc1ccc(CCN2CCN(c3nc(-c4ccc(Cl)cn4)ns3)CC2)cc1 [Example 126]
EC50 / nM: 7
--
compound: Clc1ccc(-c2nsc(N3CCN(CCc4ccccc4)CC3)n2)nc1 [Example 121]
EC50 / nM: 34.6
--
compound: N#Cc1ccc(-c2nsc(N3CCN(CCc4ccccc4)CC3)n2)cc1 [Example 108]
EC50 / nM: 7.9
--
compound: Cc1ccccc1CN1CCN(c2nc(-c3cccc(C#N)c3)ns2)CC1 [Example 119]
EC50 / nM: 25
--
compound: OC(CN1CCN(c2nc(-c3ccc(Cl)cc3)ns2)CC1)c1cccc(F)c1 (centres unmarked) [Example 63]
EC50 / nM: 7.4
--
compound: Cc1ccccc1CN1CCN(c2nc(-c3cc(Cl)ccn3)ns2)CC1 [Example 128]
EC50 / nM: 110
--
compound: N#Cc1ccc(-c2nsc(N3CCN(CCc4ccc(C(F)(F)F)cc4)CC3)n2)cc1 [Example 147]
EC50 / nM: 176
